# Tested on: primary rat microglia
# method: Cell toxicity (dead cells, size <150 μm2) in coated fibrin (cFib) assay;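 also: share of dead cells sized under 150 µm2 at 10 µM in fibrin-stimulated microglia HTS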
# settings: primary microglia HTS, fibrin stimulation; decreased size (<150 μm^2) as marker of toxicity
Counter-ions that a name gives are not always drawn.
observable: Fibrin % cell toxicity (%)

compound	observable	measure-unit	quantitative-result
COC(=O)C1=C(C)NC(C)=C(C(=O)OCCN2CCN(C(c3ccccc3)c3ccccc3)CC2)C1c1cccc([N+](=O)[O-])c1 (stereo not drawn) [Manidipine Hydrochloride]	Fibrin % cell toxicity	%	1
CC(=O)OCC(=O)[C@@]1(O)CC[C@H]2[C@@H]3CCC4=CC(=O)C=C[C@]4(C)[C@@]3(F)[C@@H](O)C[C@@]21C [Isoflupredone Acetate]	Fibrin % cell toxicity	%	3
COc1ccnc(C[S+]([O-])c2nc3cc(OC(F)F)ccc3[n-]2)c1OC.[Na+] (stereo not drawn) [Pantoprazole, Pantoprazole Sodium Salt]	Fibrin % cell toxicity	%	0

// data source = patent US20210330611A1
